Molecular target: EBP (Homo sapiens)
Construct: HEK293T cells were utilized as the source of EBP enzyme; endogenous in cells
Sequence (Q15125 whole entry): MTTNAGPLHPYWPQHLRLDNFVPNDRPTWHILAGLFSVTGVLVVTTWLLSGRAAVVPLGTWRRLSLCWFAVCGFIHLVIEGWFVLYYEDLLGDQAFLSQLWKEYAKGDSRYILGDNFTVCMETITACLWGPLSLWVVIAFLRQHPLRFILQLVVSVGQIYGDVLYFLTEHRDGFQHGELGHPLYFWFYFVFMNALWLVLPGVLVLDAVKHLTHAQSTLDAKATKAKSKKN
Assay: EBP Functional Assay (EBP immunoaffinity LC-MS assay)
Conditions: HEK293T cells as source of EBP enzyme; substrate zymosterol-d5, 37° C. for 4 h; percent conversion to dehydrolathosterol-d5 by LC-APCI MRM MS
property-measured: IC50

compound: N#Cc1cc(F)cc(S(=O)(=O)N2CCC3(CCC(N4C[C@H]5C[C@@H]4CO5)C3)CC2)c1 (stereo partly shown)
property-measured: IC50
reported-value: 100 to 250 nM
--
compound: Cc1ccc(S(=O)(=O)N2CCC3(CC2)CC(N2CC(O)C2)CO3)c(Cl)c1 (stereo not shown)
property-measured: IC50
reported-value: 100 to 250 nM
--
compound: N#Cc1cc(S(=O)(=O)N2CCC3(CCC(N4CC5(COC5)C4)C3)CC2)ccc1F (stereo not shown)
property-measured: IC50
reported-value: 250 to 1500 nM

We now examine a further compound.
Input: I'd like to know its IC50. The compound in question is Cn1nc(C2CC2)cc1S(=O)(=O)N1CCC2(CC1)C[C@@H](N1CC3(COC3)C1)CO2 (single isomer, unassigned) [Example 57a]
Output: 250 to 1500 nM
